Test system: NCI-H23 lung
Assay: NCI tumour cell line growth inhibition, 48 h
measurement type: GI50

See these solved cases before continuing.
compound: COc1cc(C2CC(c3cccc(Nc4ccnc5cc(Cl)ccc45)c3)=NN2C=O)cc(OC)c1OC (centres undefined)
measurement type: GI50
observed: 1400 nM
//
compound: [C-]#[O+].[C-]#[O+].[C-]#[O+].[C-]#[O+].[O-]C(c1ccccc1[PH+]1OC(C(F)(F)F)(C(F)(F)F)c2ccccc21)(C(F)(F)F)C(F)(F)F.[Re] (centres undefined)
measurement type: GI50
observed: 2360 nM
//
compound: CCn1c(-c2nonc2N)nc2c(C#CC(C)(C)O)nc(CN3CCCC3)cc21
measurement type: GI50
observed: > 25000 nM

Now examine the next entry.
q: May I ask what GI50 has been recorded for "O=C1NC(=NCc2ccccc2Br)S/C1=C\c1ccc2ncccc2c1" ?
a: 11500 nM

---

Tested on: HT29 colon
Assay: NCI tumour cell line growth inhibition, 48 h
measurement type: TGI (µM)
# unit: µM | format: bare number

In the examples that follow, each entry is paired with its recorded TGI.
molecule: OC/C=C/[C@H](OCc1ccccc1)[C@H](/C=C/CO)OCc1ccccc1
system: HT29 colon
observed: 59.9

molecule: COc1ccc2[nH]c3c(C)c4ccnc(NCCCN(C)CCCNc5ccc([N+](=O)[O-])c6[nH]c7ccccc7c(=O)c56)c4c(C)c3c2c1
system: HT29 colon
observed: 0.107

molecule: O=C(NCCCN1CCC(N2CCCCC2)CC1)C1=Cc2cc(Br)ccc2OC1
system: HT29 colon
observed: 12.5

molecule: CCN1C(C)(C)CC(Oc2ccc(C(=O)Nc3ccc(NC(=O)Nc4cc(C(C)(C)C)on4)cc3)nc2)CC1(C)C
system: HT29 colon
observed: 3.86

q: I'd like to know its TGI. The compound in question is "COC(=O)c1cc(C)n(CN(Cn2nc(C(=O)OC)cc2C)c2ccccc2)n1"
a: 36

---

Test system: HCT-15 colon
Assay: NCI tumour cell line growth inhibition, 48 h
measurement type: GI50

q: Requested read-out: GI50. Entry: "O=C(OCc1nc2nc(Cl)nc(N3CCOCC3)c2[nH]1)n1ccnc1"
a: 2060 nM

q: Same read-out for "COc1cc(-c2cc(/C=C3\C(=O)Nc4cc(Cl)ccc43)[nH]n2)cc(OC)c1OC" ?
a: 2590 nM

q: Note, next up: "CSc1nc(N)cc(Oc2ccc(-c3nc(Nc4cccc(C(F)(F)F)c4)n[nH]3)cc2)n1"
a: 531 nM

---

System: MALME-3M melanoma
Test: NCI tumour cell line growth inhibition, 48 h
Measured TGI by item

compound: COC(=O)Cc1c(C(=O)CC(C)(C)n2cnc(CCN3C(=O)CCC3=O)c2)[nH]c2ccccc12
TGI: > 100 µM
//
compound: CC(C)(C)OC(=O)NC(Cc1ccc(OCc2ccccc2)cn1)C(=O)N1CCCC1 (configuration not stated)
TGI: > 100 µM
//
compound: CC(=O)CC(=O)Nc1ccccc1[N+](=O)[O-]
TGI: > 100 µM
//
compound: O=C(NC/C(Cl)=C/Cl)Nc1c2ccccc2nc2ccccc12
TGI: > 100 µM
//
compound: N#Cc1c2c(c(Nc3ccc(F)cc3)n3c1nc1ccccc13)CCCC2
TGI: > 100 µM
//
compound: NC(Cc1ccc(O)c(O)c1)P(=O)(O)O (configuration not stated)
TGI: > 100 µM
//
compound: CC(OC(C)(C)C)[C@H](NC(=O)OCc1ccccc1)C(=O)NC(OCc1ccccc1)[C@H]1COC(C)(C)O1 (some centres not stated)
TGI: > 10 µM
//
compound: COc1ccc(-c2c(C#N)c(=O)nc(SC)n2C2OCC(OC(C)=O)C(OC(C)=O)C2OC(C)=O)cc1 (configuration not stated)
TGI: > 100 µM

q: Returns the measured TGI for the input compound. Input: CC(=O)OCC1OC(n2c3c(cc(C#N)c2=O)CCCCCC3)C(OC(C)=O)C(OC(C)=O)C1OC(C)=O (configuration not stated)
a: > 100 µM

q: Same thing, different compound: CC(C)C1(Cl)CCC2C3(C)CCCC(C)(C(=O)O)C3CC(Cl)C2(Cl)C1Cl (configuration not stated)
a: > 100 µM

q: Please do the same for "Cc1cc2nc(N3C(=O)/C(=C/c4ccc(Oc5ccccc5)cc4)N=C3c3ccccc3)sc2cc1C" as well.
a: > 100 µM

q: Another: "CC(C)(C)C1=Nc2c(Br)cc(C(C)(C)C)cc2C(C(F)(F)F)(C(F)(F)F)O1"
a: > 100 µM
